These measurements were taken from PubChem BioAssay.

Study target: Calmodulin-1 (Homo sapiens)
Test description: CALM1 binders on microarrays, EGTA buffer, profiling panel, biochemical, small-molecule microarray, Cy5-labelled CALM1 (AID 1111);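 further: labelled calmodulin applied in Tris saline Tween buffer holding calcium plus EGTA and DTT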
Setup conditions: Cy5-CALM1 binding fluorescence, higher = more signal
Field: composite z-score. Provide a value for each of the compounds that follow.
Reply with the value as a number alone.

Query (compound): COC(=O)C(CC#Cc1ccc2c(c1)[C@]1(C(=O)N2)[C@H](C(N)=O)[C@H]2C(=O)O[C@H](c3ccccc3)[C@H](c3ccccc3)N2[C@@H]1c1ccccc1OCCO)C(=O)OC ; field requested: composite z-score
0.534

Please report the recorded composite z-score for COc1ccc(CCNC(=O)[C@@]2(C)c3ccccc3C(=O)N(Cc3ccc(OC(F)(F)F)cc3)[C@H]2c2ccc(CO)cc2)cc1 .
-0.717

Suppose we examine the compound COCCOC(=O)N1C(=O)[C@@]2(c3ccccc31)[C@H](C(=O)Nc1nc3ccccc3s1)[C@H]1C(=O)O[C@H](c3ccccc3)[C@H](c3ccccc3)N1[C@@H]2c1ccccc1OCCO ; what composite z-score value has been reported?
1.51

Tell me the measured composite z-score of O=C1OCC=C[C@H]2OC34C=CCN(Cn5nnc6ccccc65)C(=O)[C@H]3N(CCO)C(=O)[C@@H]4[C@@H]12 (stereo partly specified) , please.
-0.157

Return reported composite z-score; argument: O=C1N(Cc2ccccc2)c2ccccc2C[C@@]12N=C(c1ccc(OCCCO)cc1)O[C@H]2c1ccccc1
0.333

Can you share its composite z-score? I mean this compound: COC(=O)[C@@]1(Cc2ccc(F)cc2)[C@H]2c3cc(C(=O)N4CCCC4)n(CCc4c[nH]c5cc(F)ccc45)c3C[C@H]2CN1C(=O)c1ccccc1
1.91

Sample C=CCN1C(=O)[C@]2(O[C@H](CCO)[C@@H]([Si](C)(C)c3ccc(OC)cc3)[C@@H]2C)c2cc(N3C(=O)c4ccccc4Oc4ccccc43)ccc21 — what was its composite z-score?
1.2

Could you tell me which composite z-score is on file for CCOC(=O)C1=C[C@@H](C(C)(C)C)N(S(=O)(=O)c2ccc(C)cc2)[C@H]1c1ccc(OC)cc1 ?
1.49

For the compound shown here, COc1ccc(C(=O)Nc2cccc(CN3C(=O)[C@]4(O[C@H](CC(=O)N(CCO)Cc5ccccc5)[C@@H]([Si](C)(C)c5ccc(OC)cc5)[C@@H]4C)c4ccccc43)c2)cc1 , give the reported composite z-score.
-0.0878

Given the compound COc1ccc(C(=O)Nc2ccc(CN3C(=O)[C@@]4(O[C@@H](CC(=O)N(CCO)Cc5ccccc5)[C@H]([Si](C)(C)c5ccc(OC)cc5)[C@H]4C)c4ccccc43)cc2)cc1 , what is its reported composite z-score?
0.655

I'd like to know its composite z-score. The compound in question is CN1C(=O)C2C(C1=O)C1C=C(CCCO)C2C(C2CC2)N1C (stereo unspecified)
0.394

* * *

Tested on: PRMT1 (protein arginine N-methyltransferase 1)
Test description: PRMT1 binders on small-molecule microarrays, primary screen, biochemical, small-molecule microarray, 635 nm fluorescence (AID 1088);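 further: binding of Prmt1 protein to compounds spotted on small-molecule microarray slides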
Setup conditions: small-molecule microarray binding, higher = more signal
Recorded metric: composite z-score
When you answer, write just the number.

Fill blank: measured composite z-score of the compound COc1ccc([Si](C)(C)[C@H]2[C@H](CC(=O)N(CCO)Cc3ccccc3)O[C@@]3(C(=O)N(c4ccccc4)c4ccccc43)[C@@H]2C)cc1 is ____.
1.51

Fill in: composite z-score of O=C1C2C=CC(C(O)c3ccccn3)N(Nc3ccc([N+](=O)[O-])cc3)C2C(=O)N1c1ccccc1 (centres undefined) is ___
0.379

Fill in the blank: the reported composite z-score of CN1C(=O)C2C(C1=O)C1C=C(CCCO)C2C(C2CC2)N1C (centres undefined) is ____.
0.74

# composite z-score lookup, item COC(=O)C(CC#Cc1ccc2c(c1)[C@]1(C(=O)N2)[C@H](C(N)=O)[C@H]2C(=O)O[C@H](c3ccccc3)[C@H](c3ccccc3)N2[C@@H]1c1ccccc1OCCO)C(=O)OC
1.56

Could you tell me which composite z-score is on file for CC(C)(C)OC(=O)CC[C@]1(C(=O)N2CCOCC2)COC(c2ccc(OCCCO)cc2)=N1 ?
0.786

Using the record for Cc1cccc([C@H]2C[C@H]3C(Br)=C[C@@]2(CO)C(=O)[C@]32CO2)c1 , report its composite z-score.
0.378

Given the compound CC(C)N1CC=CC23O[C@@H]4/C=C\CCCOC(=O)C4[C@H]2C(=O)N(C(C)CO)[C@@H]3C1=O (some centres undefined) , what is its reported composite z-score?
0.336

Consider the compound shown here: O=C1O[C@H](c2ccccc2)[C@H](c2ccccc2)N2[C@H]1[C@@H](C(=O)N1CCCCCCC1)[C@]1(C(=O)Nc3ccc(C#CCCO)cc31)[C@H]2c1ccc(O)cc1 What is its recorded composite z-score?
1.54

Need composite z-score, item CCCC1(C(=O)OC)C=C2C(=C(C(C)C)C(=O)C2C)CN1 (centres undefined)
-1.32

* * *

Test description: HepG2 cell viability effects, profiling panel, calcein-AM fluorescence, 48 h, basal (AID 1164); further: test concentration not given here
Setup conditions: higher = more signal
Assignment: determine reported z-score for the given compounds.
Enter a number only.

Which z-score value is on record for O=C(O)C1=CC[C@H]2C(=O)N(c3ccccc3)C(=O)[C@@H]12 ?
-0.625

Given the compound [N-]=[N+]=NCc1ccccc1[C@H]1OC(c2ccc(OCCCO)cc2)=N[C@@]1(CCS(=O)(=O)c1ccccc1)C(=O)NCCN1CCOCC1 , what is its reported z-score?
1.14

I'd like to know its z-score. The compound in question is COCCCNC(=O)[C@@]1(c2ccc([N+](=O)[O-])cc2)CC(=O)N(C2CCCCC2)[C@@H]1c1ccc(CO)cc1I
0.857

Dear colleague, I am looking for the recorded z-score of the following compound: COc1ccc(C(=O)Nc2cccc(CN3C(=O)[C@]4(O[C@H](CC(=O)N(CCO)Cc5ccccc5)[C@@H]([Si](C)(C)c5ccc(OC)cc5)[C@@H]4C)c4ccccc43)c2)cc1
-0.801

What value of z-score has been reported for the following compound? COc1ccc([Si](C)(C)[C@H]2[C@H](CC(=O)N3CCC[C@H]3CO)O[C@@]3(C(=O)N(C)c4ccccc43)[C@@H]2C)cc1
0.233

GET /values?readout=z-score&item= C=CCN1C(=O)[C@]2(O[C@H](CCO)[C@@H]([Si](C)(C)c3ccc(OC)cc3)[C@@H]2C)c2cc(N3C(=O)c4ccccc4Oc4ccccc43)ccc21
-4.64

# input compound: N#Cc1ccc(NN2C(C(O)c3ccc(B(O)O)cc3)C=CC3CN(c4ccccc4)C(=O)C32)cc1 (configuration not stated) ; wanted: its z-score
-0.35

Suppose we examine the compound NCCCCCCNC(=O)[C@@H]1C[C@@H]2C(=O)NCC(=O)N2[C@@H]1c1cccc(OCCO)c1 ; what z-score value has been reported?
1.06

Which measured z-score value corresponds to COC(=O)[C@@]1(Cc2ccc(F)cc2)[C@H]2c3cc(C(=O)N4CCCC4)n(CCc4c[nH]c5cc(F)ccc45)c3C[C@H]2CN1C(=O)c1ccccc1 ?
0.194

Data request, read-out z-score, for COCCOC(=O)N1C(=O)[C@@]2(c3cc(C#CCNC(N)=O)ccc31)[C@H](c1ccccc1OCCO)N1[C@H](c3ccccc3)[C@H](c3ccccc3)OC(=O)[C@H]1[C@@H]2C(=O)N1CCCCCCC1
0.371

Entry COc1ccc([Si](C)(C)[C@H]2[C@H](CC(=O)N3CCC[C@H]3CO)O[C@@]3(C(=O)N(C)c4c(Br)cc(C)cc43)[C@@H]2C)cc1 has what z-score?
-0.232

I would be grateful if you could share the reported z-score for C=CC[C@]1(C(=O)NCCN2CCOCC2)N=C(c2ccc(OCCCO)cc2)O[C@H]1c1ccccc1 .
-0.0656

* * *

Hi there, I'd appreciate the recorded composite z-score for every entry that follows.
Study target: Epidermal growth factor receptor (Homo sapiens)
Test description: EGFR binders on small-molecule microarrays, primary screen, biochemical, small-molecule microarray, 635 nm fluorescence (AID 1104);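 further: score merges 667 nm emission intensity with spot signal to noise over triplicate slides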
Setup conditions: EGFR binding, higher = more signal
The answer should be a number; do not append a unit.

Requested field: composite z-score. Item: C=C(CC1([C@@H](NP(=O)(c2ccccc2)c2ccccc2)[C@H]2C[C@@H]2CCCC)CC1)c1cccc(OC)c1
-0.28

Given the entry C=CCOC(=O)[C@H]1[C@@H]2C(=O)O[C@@H](c3ccccc3)[C@@H](c3ccccc3)N2[C@@H](c2ccc(OCCOC(=O)[C@H]3C[C@H]4C(=O)NCC(=O)N4[C@H]3c3ccc(O)cc3)cc2)[C@]12C(=O)Nc1ccccc12 , report its measured composite z-score.
0.756

Given COc1cc2c(cc1OC)CN(C(=O)[C@@H]1[C@H]3C(=O)O[C@H](c4ccccc4)[C@H](c4ccccc4)N3[C@H](c3ccc(O)cc3)[C@@]13C(=O)Nc1ccc(C#CC4=CCCCC4)cc13)CC2 , state its recorded composite z-score.
0.452

I have this compound here, CO[C@H]1O[C@H](CO)[C@@H](OC(=O)Nc2cccc(F)c2)[C@H](OC(=O)Nc2ccc3c(c2)OCO3)[C@@H]1OC(=O)Nc1ccc2c(c1)OCO2 , and I need its recorded composite z-score.
0.0595

Record request: composite z-score value, item CN(C)C(=O)[C@]1(CCS(=O)(=O)c2ccccc2)N=C(c2ccc(OCCCO)cc2)O[C@@H]1c1ccccc1CN=[N+]=[N-]
-0.126
